// provenance: the nanobody polyreactivity screen of Harvey et al. (2022)

Experiment summary: yeast display, Sf9 membrane polyspecificity reagent, FACS + sequencing; frameworks hold sequencing errors
Metric: polyreactivity (PSR sort gate)

Take a look at these entries with their results.
QVQLVDSGGGLVQAGGSLRLSCAASGSIFVTYAMGWSRQAPAKERELVAAITDRGGSTYADSVKGRFTISRDNAKNTVYLQMNSLKPEDTAVYYCAADPDLGDAYDYWGQGTQVTVSS : low polyreactivity
QVQLVESGGGLVQAGGSLRLSCAASGSTFEIYAMGWYRQAPGKERELVAAISSGGSTNYADSVKGRFTISRDNAKNTVYLQMNSLKPEDTAVYYCVYAIQFDYWGQGTQVTVSS : low polyreactivity
QVQLVESGGGLVQAGGRLRLSCAATGRTFRTYVMGWYRQGPGKEREMFAAITWSAGRTYYADSVKGRFTISRDNAQNTVYLQMNSLKPEDTAVYYCATLPTYYLRSYGLDYWGQGTQVTVSS : high polyreactivity
QVQLVESGGGLVQAGGSLRLSCAASGIIFRYNAMGLYRQAPGKERELVAAISWSGGYTYYADYVKGRFTISRDNAKNTVYFQMNSLKPEDTAVYYFNAVSLSRWGGYWGQGTQVTVSS : high polyreactivity
QVQLVESGGGLVQAGGSLRLSCAASGNTIKDYTMGWYRQAPGKERELVASINSGGSTNYADSVKGRFTISRDNPKNTVYLQMNSLKPEDTAVYYSAKRAWSDYNPIDYWGQGTQVTVSS : low polyreactivity
QVQLVESGGGLVQAGGSLRLSCAASGSILKPYAMGWYRQAPGKERELVARISSSGGRTYYADSVKGRFTISRDNAKNTFYFKMNSLKPEDTAVYYFAAAIVSYGRNDYWGQGTQVTVSS : high polyreactivity
QVQLVESGGGLVEAGGSLRLSCAASGRIFRKYTMGWYRQAPGKERELVAAISRNGGDTYYADSVKGRFTISRDNAKNTVYLLMNSLKPEDTAVYYCNARTPTDSTHFDYWGQGTQVSVSS : low polyreactivity
QVQRVESGGGLVQAGGSLRLSCAASGSIFSYNAMGWYRQAPGKERELVAAIRASGGDTYYADSVKGRFTISRDNAKNTVYLQMISLKPEDTAVYYCAARTYAHHYASHGYWGQGTQVTVSS : low polyreactivity

Quick note, polyreactivity (PSR sort gate) for "QVQLVESGGGLVQAGGSLRLSCAASGRTFNRNAMGWYRQAPGKARELVAAISRGGGGTFFADSVKWRFTISRDNAKNTVYLQMNSLKPEDTAFYFCAAVPIAADKANGYDYWGQGTQVTVSS" landed at low polyreactivity

polyreactivity (PSR sort gate) measured on "QVQLVESGGGLVQAGGSLRLSSAASGRIFSINVMGWYRHAPGKERELVAAISKRGGSTYYADSVKGRFTISRDNAKNTVYLQMNSLKPEDTAVYYCAVDRYSTDRVKTSYGYDYWGQGTQVTVSS" = high polyreactivity

---

Experiment summary: yeast display, Sf9 membrane polyspecificity reagent, FACS + sequencing; frameworks hold sequencing errors
Metric: polyreactivity (PSR sort gate)

QVQLVESGGGLVQAGGSLRLSCAASGSTFLVYAMGWYRQAPGKERELVAVIRWRDGSTYYADSVKGRFTISRDNAKNTVYLQMNSLKPEDTAVYYCAAVYWGEEYEYWGQGTQVTVSS : low polyreactivity
QVQLVESGGGLVQAGGSLRLSCAASGGTYELYVMGWYRQAPGKERELVAAISVNGDDTYYADSVKGRITISRDNAKNTVYLQMNSLKPEDTAVYYCAAEVLGSYYLTGYDYWGQGTQVTVSS : high polyreactivity
QVQLVESGGGLVQAGGSLRLRCAASGLMFYDNMGCYRQAPGKERELVAAISSSGGSTSYADSVKGRFTISRDNAKNTVYLQMNSLKPEDTAVYYCAAKWSLVRDCPKYDYWGQGTQVTVSS : low polyreactivity
QVQLVESGGGLVQAGGSLRLSCAASGFTFVQYAMGWYRPAPGKERELVATITNGGGSTYYADSVKGRFTISRDNAKNTVYLQMNSLKPEDPAVYYCNADSGGRGAPTSTYDYWGQGTQVTLSS : low polyreactivity
QVQLVESGGGIVQAGGSLRLSCAASGSIFGSYAMGWYRQAPGKERELVAAITRSGGRTYYADSVKGRFTISRDNAKNTVYLQMNSLKPEDTAVYYCNAKLKLPSGGDYWGQGTQVTVSS : high polyreactivity

Okay, next one:
Value of polyreactivity (PSR sort gate) reported for the sequence "QVQLEESGGGLVQAGGSLRLSCAASGFIYAHYAMGWYRQAPGKERELVAAISSRGGSTYYADSVKGRFTISRDYAKNPVYLQINSLKPEDTAVYYCAKARHRPARGYEYWGLGTQVTVSS" is high polyreactivity
